assaySystem: AMP-activated protein kinase, AMPK (Homo sapiens) (UniProt P54646+O43741+P54619+Q9UGJ0+Q9Y478+Q13131+Q9UGI9)
assayName: AMP-dependent Kinase enzyme assay. An in vitro enzyme assay that detects ADP turnover that is directly proportional to AMPK activity. This uses naive AMPK that is activated during the assay with MK-8722
Format: functional
Design: scale not given: direction of the effect not stated beside the values
runParameters: 30 µM
measure: Percent Effect (%)
Unit % implied. Number only.

Some molecules with known Percent Effect results, for comparison:
CC(C)[C@H](NC(=O)NC1CCS(=O)(=O)C1)C(=O)NCc1cccnc1 (some centres undefined)
5.47
NC(=O)CN1CCC(NC(=O)c2ccn(-c3cccc(F)c3)n2)CC1
-2.99
CN1CC(=O)N(c2ccccc2)CC12CCN(Cc1nccs1)C2 (centres undefined)
4.18

Summary for this molecule, CCc1c(C(=O)NCC(=O)OCC2CC2)cnn1-c1ccc(C)cc1 : Percent Effect is 2.14

Summary for this molecule, CCOc1ccc(C(=O)NS(=O)(=O)c2cncc(Br)c2)cc1OC : Percent Effect is -8.62

Summary for this molecule, CCc1noc(C(C)N(C)CC(=O)Nc2ccc(C)cc2)n1 (centres undefined) : Percent Effect is 2.85

Summary for this molecule, CCc1ncncc1C(=O)NCCN1CCC(C)CC1 : Percent Effect is -7.77

Summary for this molecule, O=C(Cc1ccc2c(c1)CCO2)N1CCN(c2cnccn2)CC1 : Percent Effect is 2.2

Summary for this molecule, COCCN1CCC(CNC(=O)C2(c3cccc(C)c3)CC2)CC1 : Percent Effect is 0.953

Summary for this molecule, Cc1ccc(CN2CCc3ncc(CNS(C)(=O)=O)n3CC2)o1 : Percent Effect is -1.38

Summary for this molecule, CC(C)CCOCCNC(=O)Nc1cc(C(F)(F)F)c[nH]c1=O : Percent Effect is 3.62

Summary for this molecule, CC[C@@H](CO)NC(=O)c1coc(COc2ccc(OC)cc2)n1 : Percent Effect is -5.65

Summary for this molecule, O=C(c1cccc(Cl)c1)N1CCCn2c(CN3CCCCC3)nnc2C1 : Percent Effect is -3.61

Summary for this molecule, O=C(CN1CCCC1Cn1cncn1)NCCc1c(F)cccc1F (centres undefined) : Percent Effect is -9.7

Summary for this molecule, Cn1nc2c(cc1=O)CN(CCc1nc3ccccc3c(=O)[nH]1)CC2 : Percent Effect is -206

Summary for this molecule, COc1ccc(NC(C)C(=O)N2CCN(Cc3ccccc3)CC2)cn1 (centres undefined) : Percent Effect is -258

Summary for this molecule, OC1CCN(Cc2cc3c(cc2Br)OCCO3)CC1 : Percent Effect is 1.37

Summary for this molecule, CC(NC(=O)NCCOc1ccc(F)c(F)c1)c1nncn1C (centres undefined) : Percent Effect is 2.42

Summary for this molecule, COc1cc(C)nc(N2CCN(C(=O)c3ccc[nH]3)CC2)n1 : Percent Effect is -2.76
